Values from patent US20220177594A1

Recorded ELISA ratio for the following binders
MEASUREMENT TARGET: Feline_OSMR_hlgG1_Fc (feline)
Sequence (chain, as listed by the source limits assumed, form in doubt): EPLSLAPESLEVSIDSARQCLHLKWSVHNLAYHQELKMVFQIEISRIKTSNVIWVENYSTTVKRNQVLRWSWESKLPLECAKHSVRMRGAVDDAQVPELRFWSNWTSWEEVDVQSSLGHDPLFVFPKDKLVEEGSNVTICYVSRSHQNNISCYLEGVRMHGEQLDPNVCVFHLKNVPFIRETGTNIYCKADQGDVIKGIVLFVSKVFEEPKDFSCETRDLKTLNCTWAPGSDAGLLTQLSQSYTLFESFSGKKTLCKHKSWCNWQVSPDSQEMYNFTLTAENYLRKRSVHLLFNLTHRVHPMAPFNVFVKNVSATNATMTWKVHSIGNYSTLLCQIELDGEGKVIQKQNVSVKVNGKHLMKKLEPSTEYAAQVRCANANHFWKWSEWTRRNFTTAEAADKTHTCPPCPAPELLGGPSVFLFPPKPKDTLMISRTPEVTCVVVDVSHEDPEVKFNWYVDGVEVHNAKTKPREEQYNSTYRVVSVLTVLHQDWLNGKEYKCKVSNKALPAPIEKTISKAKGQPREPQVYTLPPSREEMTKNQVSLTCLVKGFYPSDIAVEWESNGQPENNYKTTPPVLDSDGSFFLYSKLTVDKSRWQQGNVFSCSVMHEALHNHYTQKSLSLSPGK
ASSAY: indirect ELISA, fOSMR coated; OD ratio to antibody expression control
Provide the reading as a plain figure in OD ratio.

The cases that follow already have their ELISA ratio on record.
binder="Mu_09E09_VH (SEQ ID NO: 35)_I101A (antibody, V domains shown) VH: DVKLVESGEGLVKPGGSLKLSCAASGFTFSSYAMSWVRQTPEKRLEWVAYISSGGDYIYYADTVKGRFTISRDNARNTLYLQMSSLKSEDTAMYYCTRDPATGTFAYWGQGTLVTVSA VL: DLQMTQTTSSLSASLGDRVTISCRASQDINNYLNWYQQKPDGTVKLLIYYTSTLHSGVPSRFSGSGSGTDYSLTISNLEQEDIATYFCQQGNTLPWTFGGGTKLEIKR" recorded_result=0
binder="mouse: canine 02D09 chimera (antibody, V domains shown) VH: EVQLVESGGGLVKPGGSLTLSCAASGFTFSDYGMHWLRQAPEKGLEWVAYISSGSRAVFFADTVKGRFTISRDNAKNTLFLQMTSLRSDDTAMYYCARDRYDGRGFAYWGQGTLVTVSA VL: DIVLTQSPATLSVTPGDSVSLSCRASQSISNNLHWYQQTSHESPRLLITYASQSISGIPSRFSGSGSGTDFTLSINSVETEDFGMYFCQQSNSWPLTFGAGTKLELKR" recorded_result=1.61

Qu. Reported ELISA ratio, binder Mu_10F07_VH (SEQ ID NO: 39)_I101A (antibody, V domains shown) VH: DVKLVESGEGLVKPGGSLKLSCAASGFTFSSYAMSWVRQTPEKRLEWVTYISSGGDYFYYADTVKGRFTISRDNARNTLYLQMSSLKSEDTAMYYCTRDPATGTFAYWGQGTLVTVSA VL: DIQMTQTTSSLSASLGDRVTISCRASQDITNYLNWYQQKPDGTVKLLIYYTSTLHSGVPSRFSGSGSGTDFSLTISNLEQEDIATYFCQQGHMLPWTFGGGTKLEIKR : ____
Ans. 0

Qu. Reported ELISA ratio, binder Mu_09E09_VL (SEQ ID NO: 37)_N92A (antibody, V domains shown) VH: DVKLVESGEGLVKPGGSLKLSCAASGFTFSSYAMSWVRQTPEKRLEWVAYISSGGDYIYYADTVKGRFTISRDNARNTLYLQMSSLKSEDTAMYYCTRDPITGTFAYWGQGTLVTVSA VL: DLQMTQTTSSLSASLGDRVTISCRASQDINNYLNWYQQKPDGTVKLLIYYTSTLHSGVPSRFSGSGSGTDYSLTISNLEQEDIATYFCQQGATLPWTFGGGTKLEIKR : ____
Ans. 0.015

Qu. Reported ELISA ratio, binder Mu_09E09_VL (SEQ ID NO: 37)_Y50A (antibody, V domains shown) VH: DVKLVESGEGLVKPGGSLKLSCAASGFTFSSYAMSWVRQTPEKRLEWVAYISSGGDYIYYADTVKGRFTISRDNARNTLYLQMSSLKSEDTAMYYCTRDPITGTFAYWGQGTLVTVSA VL: DLQMTQTTSSLSASLGDRVTISCRASQDINNYLNWYQQKPDGTVKLLIYATSTLHSGVPSRFSGSGSGTDYSLTISNLEQEDIATYFCQQGNTLPWTFGGGTKLEIKR : ____
Ans. 0
